Cited source: patent US20240270828A1

System Under Test: T1, SARS-CoV-2 S2 (40590-V08B, Sino Biological) (SARS-CoV-2, UniProt P0DTC2 686-1213)
T1 construct: domain: S2
Experimental Protocol: ELISA, hmAb at 10 and 1 ug/ml in duplicate; AUC
Each entry below carries its recorded Binding AUC.

{"Binder": "1242G6 (antibody, V domains shown, Recombinant human IgG1) VH: QVQLVQSGGGVVQPGTSVRLSCAASGFTFSDHGMHWVRQAPGKGLEWVAVISFEGRNKFFADSVKGRSTISRDNSKNTVSMQVDNVRPEDTAVYYCAREHFDGSGSDYIGTRFFDYWGRGALVTVSS VL: DIQLTQSPSFLSASVGDRVTITCRASQGISHYLTWYQQKPGKAPKLLIYRTSTLQSGVPSRFSGSGSGTVFTLTISSLQPEDLATYYCQHLDNFPTITFGQGTRLDLK", "Binding AUC": 22.6}
{"Binder": "1246C2 (antibody, V domains shown) VH: QVQLVQSGGGLVKPGGSLRLSCAASGFTFKTHNMIWVRQAPGKVLEWVSSISGSSSYRYYGDSMKGRLTISRDNAKNSLYLEMNSLRAEDTAVYYCARDKGVGPTMVWYFDLWGRGTLVTVSS VL: EIVLTQSPATLSLSPGDRATLSCRASQSLSISLAWYQQKPGQAPRLLIYDASIRATGVPPRFSGSGSGTDFTLTISSLEPEDFAVYYCQQWSGWPPRLTFGGGTKVEIK", "Binding AUC": 17.4}
{"Binder": "1242F4 (antibody, V domains shown, Recombinant human IgG1) VH: EVQLVQSGAEVKKPGTSVKVSCKASGNTVADYYMHWVRQAPRQGLEWVGLINPSGSGTAYAQNFQGRVTLTRDTSTSTLYMELGSLGSEDTAIYYCARMDSSGTYDVWGQGTLVTVSS VL: EIVLTQSPGTLSLSPGERATLSCRASQSIRSGYLAWYQQKPGQAPRLLIRGASVKATGIPDRFSGSGSGTDFTLTISRLEPEDFVVYYCQHFASSPPRYTFGQGTKLEIK", "Binding AUC": 28.5}
{"Binder": "1250D2 (antibody, V domains shown, Recombinant human IgG1) VH: QVQLVQSGAEVKKPGASMKVSCKASGFTFSDYYMHWVRQAPRQGLEWMGLINPSGSGTAYAQNFQGRVTLTRDTSTSTLYMEMGSLTSDDTAVYYCARMDSSGSYDHWGQGTLVTVSS VL: EIVLTQSPGTLSLSPGDRATLSCRASQTIRISYLAWYQQKPGQAPRLLVYGPSIRATGIPDRFSASGSGTDFTLTISRLEPEDFAVYYCQHYGSSPPRYTFGQGTKLEIK", "Binding AUC": 28.2}
{"Binder": "1249A8 (antibody, V domains shown) VH: QVQLVQSGAEVKKPGASMKVSCKASGFTFTDYYMHWVRQAPRQGLEWMGLINPSGSGTAYAQNFQGRVTLARDTSTSTLYMEMGSLTSDDTAVYYCARMDSSGSYDHWGQGTLVTVSS VL: ETTLTQSPGTLSLSPGDRATLSCRASQTIRISYLAWYQQKPGQAPRLLVYGPSIRATGIPDRFSARGSGTDFTLTISRLEPEDFAVYYCQHYGSSPPRYTFGQGTKLEIK", "Binding AUC": 28.2}
{"Binder": "1250E10 (antibody, V domains shown, Recombinant human IgG1) VH: EVQLVQSGAEVKKPGASVKFSCKASGFRVDGSYMHWVRQAPRGGLEWMGLINPSGSGTAYAQIFQGRVTLTRDTSTSTLYMELGSLGSEDTAMYYCARMDRSGSYDLWGQGTLVIVSS VL: DIVLTQSPGNLSLSPGERATLSCRASESIRSAYIAWYQQKPGQAPRLLMRGASVRAAGIPDRFSGSGSGTDYALTISRLEPEDFAVYYCQHFASSPPRYTFGQGTKLEIK", "Binding AUC": 27.9}
